Values compiled from a melting point compilation (Tetko et al.; mined from patent text by program, amines drawn as free bases though some values may be those of a salt).

Quick list: melting point per entry.

Please review the entries below; each comes with its answer.
O=c1c2cccnc2sc(=Nc2ccc(C(F)(F)F)cc2)n1Cc1ccccc1 126 to 128 °C
Cn1cnc2nc(-c3ccc(Cl)cn3)nn2c1=S > 300 °C
Fc1cc(F)c2c(c1)C[C@@H](n1c(CCNCc3ccccc3)c[nH]c1=S)CO2 188 to 190 °C
N#Cc1cc2c(cc1F)S(=O)(=O)NCN2C1CC1 208 to 210 °C

Problem: For `CS(=O)(=O)Nc1ccc(/C=C\COCCCCCCO)cc1` , what is its reported melting point?
Result: 65 to 67 °C

* * *

Quick list: melting point per entry.

Please review the entries below; each comes with its answer.
molecule	observed.measurement
CC(=O)OCC1OC(c2nc(C(N)=O)cs2)C(OC(C)=O)C1OC(C)=O (stereo not given)	103 °C
OCC1CC(O)C(n2cnc3cc(Cl)c(Cl)cc32)C1 (stereo not given)	244 to 245 °C
CC(=O)Oc1ccc(C(F)(F)C(F)(F)C(F)(F)I)cc1	75 to 81 °C

Problem: For `CC1CCN(c2nc(N)c3ccccc3n2)CC1` , what is its reported melting point?
Result: 190 °C

Problem: Same read-out for `O=C(CCC(CCC(=O)OCc1ccccc1)(CCC(=O)OCc1ccccc1)[N+](=O)[O-])OCc1ccccc1` ?
Result: 95 to 96 °C

Problem: Same read-out for Cc1c(C)c2c(c(C)c1NC(=O)CC(C)(C)C)C(c1ccc(C(C)CCO)cc1)CO2 (stereo not given) ?
Result: 145 to 147 °C

Problem: Same read-out for `CN1C(=O)NC(=O)C1=O` ?
Result: 146 to 149 °C

Problem: Same read-out for `Nc1ncc(-c2cc(Cl)cc(Cl)c2Cl)c(N)n1` ?
Result: 246 to 249 °C

Problem: Same read-out for CC(=O)OC(Cn1cncn1)c1ccc(Cl)cc1Cl (stereo not given) ?
Result: 92 to 96 °C

Problem: Same read-out for `COc1cccc(CSCCNC(=O)c2c(Cl)cccc2OC)c1` ?
Result: 58 to 59 °C

* * *

result.type: melting point

Please review the entries below; each comes with its answer.
compound	melting point
COc1cc2c(cc1O)CCN(C(=O)c1cc(OC)c(OC)c(OC)c1)C2=O	175 to 176 °C
Clc1ccc(-c2nc(Sc3cccs3)[nH]c2-c2ccc(Cl)cc2)cc1	219 °C
CC1CN(c2ccc(S(N)(=O)=O)cc2)CC(C)N1CCC1OCCc2ccccc21 (stereo not given)	170 to 175 °C

Problem: For CCc1noc(-c2ncc3[nH]c4ccc(C5CC=CCC5)cc4c3c2C)n1 (stereo not given) , what is its reported melting point?
Result: 247 to 248 °C

Problem: Same read-out for `CC(C)(O)CCCCCc1cccc(CCc2ccc(O)c(CO)c2)c1` ?
Result: 73 to 75 °C

* * *

result.type: melting point

Please review the entries below; each comes with its answer.
compound	result.type	observed.measurement
COc1ccc2oc(C(=O)OCC(C)(C)C(O)C(C)(C)C)cc2c1 (stereo not given)	melting point	114 °C
COc1ccc2nc(C(F)(F)F)c(C(=O)Nc3nccs3)c(O)c2c1	melting point	> 270 °C
CCc1cccc(C)c1CNc1nc(Br)cc(N)c1[N+](=O)[O-]	melting point	126 to 128 °C
O=C(CCC(=O)c1ccc(CCNS(=O)(=O)c2ccccc2)cc1)Nc1nnn[nH]1	melting point	241 to 242 °C

Problem: For `CCCOc1ccc(S(=O)(=O)N2CCN(CCOC(=O)CC)CC2)cc1-c1nc2c(CCC)cn(CC)c2c(=O)[nH]1` , what is its reported melting point?
Result: 126 to 128 °C
